Taken from PubChem BioAssay.

assay protocol: inhibition of 3D7 malaria parasite growth – strain 3D7 (AID 2306);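 note: 0% = DMSO wells and 100% = chloroquine plus artemisinin control wells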
applied conditions: P. falciparum 3D7 erythrocytic growth, LDH absorbance, 72 h; at 2 µM; hits give high values
measured parameter: growth inhibition (%)
Unit % implied. Number only.

# growth inhibition lookup, item CC(C)(C)c1nn(-c2ccccc2)c2[nH]c(=O)c(CNCCc3ccccc3)cc12 94

# get_value(readout='growth inhibition', item= CCN(c1ccccc1)S(=O)(=O)c1ccc(NC(=O)c2cc(-c3cc(C)ccc3O)n[nH]2)cc1 ) 99

Item CCCCc1cc(NCc2ccncc2)nc(Nc2cccc(OC)c2)n1 has what recorded growth inhibition? 101

Item under review: Fc1ccc(-c2cncc(Nc3ccncc3)n2)cc1 . Reported growth inhibition? 88

What measured growth inhibition goes with CC(C)Cc1cn(-c2nc(C(=N)N)cs2)c2cc(Cl)ccc12 ? 100

Please look at the following compound next.
Entry C=CCc1cc(C)ccc1OCCCON1C(N)=NC(N)=NC1(C)C has what growth inhibition? 96

###

assay protocol: inhibition of 3D7 malaria parasite growth – strain 3D7 (AID 2306);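 note: 0% = DMSO wells and 100% = chloroquine plus artemisinin control wells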
applied conditions: P. falciparum 3D7 erythrocytic growth, LDH absorbance, 72 h; at 2 µM; hits give high values
Reported growth inhibition by item:
// note: answer is a bare numeric in %

For the compound shown here, CC(C)CNCc1cccc(-c2cccc(CNC3CCN(Cc4ccccc4)CC3)c2)c1 , give the reported growth inhibition. 102

Need growth inhibition of O=C(Oc1ccc(Cl)cc1C(=O)Nc1ccc([N+](=O)[O-])cc1Cl)c1ccccc1 , thanks. 97

I have this compound here, Clc1cc(Nc2ncnc3sc(C#C[C@H]4CCCN4)cc23)ccc1OCc1cccnc1Cl , and I need its recorded growth inhibition. 101

Given Cc1c(OC(C)C)nc2ccccc2c1C(=O)N[C@H](c1cccc(F)c1)C1CC1 , state its recorded growth inhibition. 83

// growth inhibition lookup, key: COc1ccccc1N1CCN(CCCCNC(=O)c2ccc(NC(=O)c3ccc(OC(F)(F)F)cc3)cc2)CC1 100

Which measured growth inhibition value corresponds to COc1ccccc1-c1ccc(CNC(=O)C(CN2CCN(C)CC2)c2ccccc2)cc1 (stereo not given) ? 90

More entries:
Which measured growth inhibition value corresponds to CCCn1cc2c(ccc3nc(N)nc(N)c32)n1 ? 95

Name the recorded growth inhibition for CN(C)c1cc(NC(=O)Nc2ccccc2)c2ccccc2n1 . 101

Using the record for CCOc1cc(C(=O)NCCc2ccc(Cl)c(Cl)c2)ccc1-c1nc2ccc(Cl)cc2[nH]1 , report its growth inhibition. 100

Bench note: what growth inhibition did COc1ccc(C2CC(=O)C3=C(C2)NC(C)=C(C(=O)OC(C)C)C3c2cccc(O)c2)cc1OC (stereo not given) show? 100

###

target under test: Calcium-dependent protein kinase 1 (Plasmodium falciparum (isolate 3D7)) (UniProt P62344)
Sequence (P62344 whole entry, looked up): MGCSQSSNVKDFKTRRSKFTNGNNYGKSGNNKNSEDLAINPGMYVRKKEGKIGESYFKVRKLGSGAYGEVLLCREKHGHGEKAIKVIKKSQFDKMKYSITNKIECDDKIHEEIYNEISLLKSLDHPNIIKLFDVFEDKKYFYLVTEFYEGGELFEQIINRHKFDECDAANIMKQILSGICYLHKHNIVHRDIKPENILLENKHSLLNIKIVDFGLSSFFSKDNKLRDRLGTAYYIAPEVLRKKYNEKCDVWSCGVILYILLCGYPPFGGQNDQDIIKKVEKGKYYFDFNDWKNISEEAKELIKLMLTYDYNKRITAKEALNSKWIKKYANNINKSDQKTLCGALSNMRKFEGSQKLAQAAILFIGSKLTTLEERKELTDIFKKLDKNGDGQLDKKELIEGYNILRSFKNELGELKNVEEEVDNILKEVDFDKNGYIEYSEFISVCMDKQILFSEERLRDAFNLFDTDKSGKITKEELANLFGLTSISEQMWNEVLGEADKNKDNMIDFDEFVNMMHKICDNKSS
assay protocol: PfCDPK1 kinase inhibitors, biochemical, TCAMS library (AID 1159585);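 note: inhibitors leave more ATP so luminescence rises with inhibition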
applied conditions: recombinant PfCDPK1, Kinase-Glo ATP depletion luminescence
Measured potencies and affinities stand elsewhere. The source made the active and inactive calls. Cut-off not given; nearly all actives show IC50 up to about 0.98 µM.
measured parameter: outcome

Reference set, count: 4
Report outcome for COc1ccc(N2CCN(CCCCNC(=O)c3ccc(NC(=O)c4ccc(Cl)c(Cl)c4)cc3)CC2)c(OC)c1 please. inactive

Endpoint output: outcome of CCC(=O)OC(CCN(CC)CC)(c1ccccc1)c1ccccc1 . Value? inactive

Reported outcome, compound CCCCCCc1c(C)[nH]c2cc(OC)ccc2c1=O : ____ inactive

# query: outcome of entry Cc1cc(NN=Cc2ccccc2)c2cc(C(F)(F)F)ccc2n1 inactive

Now look at this entry.
Entry c1cc(CN2CCN(CCN3CCOCC3)CC2)cc(-c2csc(-c3nc4ccccc4[nH]3)c2)c1 has what outcome? inactive

###

inhibition for assorted compounds
target under test: L-lactate dehydrogenase (Plasmodium falciparum (isolate CDC / Honduras)) (UniProt Q27743)
Sequence (Q27743 whole entry, looked up): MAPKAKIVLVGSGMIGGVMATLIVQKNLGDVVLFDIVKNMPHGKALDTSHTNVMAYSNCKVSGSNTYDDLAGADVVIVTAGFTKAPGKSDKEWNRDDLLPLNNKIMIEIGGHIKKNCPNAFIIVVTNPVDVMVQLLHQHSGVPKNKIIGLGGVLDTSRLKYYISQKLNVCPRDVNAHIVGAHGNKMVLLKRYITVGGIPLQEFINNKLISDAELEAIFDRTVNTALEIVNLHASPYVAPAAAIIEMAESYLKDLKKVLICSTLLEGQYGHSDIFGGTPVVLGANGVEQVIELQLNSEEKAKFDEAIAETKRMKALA
assay protocol: PfLDH activity inhibition – cell lysate, 3D7 strain, counter-screen for P. falciparum growth inhibition project (AID 2304);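 note: 0% = vehicle and 100% = reference inhibitor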
applied conditions: P. falciparum 3D7 crude extract, LDH APAD/NBT absorbance; at 2 µM; hits give high values
Give the quantity in %, number only.

For orientation, consider the following solved cases.
// returns reported inhibition for input CCCC(=O)Nc1ccc(OCCCN(Cc2cccc(C(F)(F)F)c2)c2ccc(C#N)c(C(F)(F)F)c2)cc1 -5

Name the recorded inhibition for CCC(C)c1ccc(O)c(NC(=O)c2cncc(Br)c2)c1 (centres undefined) . -4

More entries:
What measured inhibition goes with CN1CCN(c2ccc(Nc3ccnc4ccc(-c5ccccc5)cc34)cc2)CC1 ? -2

Which inhibition is reported for this compound? O=C(/C=C/c1ccccc1F)NC1CCC(CCN2CCc3ccc(-c4cccnc4)cc3CC2)CC1 (centres undefined) -4

Given the compound Cc1nc(N)nc(N)c1-c1cc(Cl)c(N)c(Cl)c1 , what is its reported inhibition? 6

So what's the measured inhibition for this one? Fc1ccc2nc(-c3ccc(-c4ccc(CNCC5CCCO5)cc4)s3)[nH]c2c1 (centres undefined) -2

Field request: inhibition | item: CN(C)CCCOc1c(C(C)(C)C)cc(-c2cc(C(C)(C)C)c(OCCCN(C)C)c(C(C)(C)C)c2)cc1C(C)(C)C 0

Requested field: inhibition. Item: Cc1cc(CN2CCCC(OC(c3ccc(F)cc3)c3ccc(F)cc3)C2)ccc1O (centres undefined) 3

Name the reported inhibition value associated with the compound O=C(NCc1ccc(C(=O)NCc2cccc3ccccc23)cc1)c1ccc(O)c(-c2ccc(Cl)c(Cl)c2)c1 -2

###

assay protocol: antimalarial activity against Dd2 strain (AID 2302);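 note: 0% = DMSO untreated growth and 100% = chloroquine plus artemisinin killed control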
applied conditions: P. falciparum Dd2 in RBCs, LDH growth readout, 72 h; at 2 µM; hits give high values
Okay, here is how we bin by growth inhibition: band 1 = under 30%, band 2 = from 30% up to 70%, band 3 = 70% and over

// return the class label for O=C(Nc1ccnc(-c2cccnc2)n1)c1cc(C(F)(F)F)cc(C(F)(F)F)c1 band 1

Band for the recorded growth inhibition of CCCCNC[C@@H](O)[C@H](Cc1ccccc1)NC(=O)c1cc(NCC)cc(N2CCCCS2(=O)=O)c1 ? band 3

Assign a bin to COc1ccc(CC(C)CON2C(N)=NC(N)=NC2(C)C)cc1 (stereo not drawn) band 3

Others:
Form field 'band' for CC(C)(C)OC(=O)NCc1ccc(Nc2nnc(-c3ccc(OCC(=O)NC[C@@H]4CC[C@H]5C[C@@H]4C5(C)C)c([N+](=O)[O-])c3)o2)cc1 band 2

Would you mind sorting Fc1ccc(-c2cncc(-c3ccc(F)cc3)n2)cc1 into the appropriate category? band 3

Sort Cc1cccc(C)c1N1CCN(C2CCC(NC(=O)/C=C/c3ccccc3)CC2)CC1 (stereo not drawn) into one of the categories. band 2

Category of COc1ccccc1CCNc1nc(C)cc(N[C@@H](Cc2ccccc2)C(=O)NCCCOC(C)C)n1 : band 2

Entry CN(C)c1ccc(-c2csc(C(=O)NCC3CCN(Cc4cccc(C(F)(F)F)c4)C3)c2)cc1 (stereo not drawn) belongs to which category? band 2

Exercise: read the entry CC(C)CCN1CCC(Oc2ccc(NC(=O)c3ccccc3)cc2Cl)CC1 and state which class it falls under. band 3

Any idea which band O=S(=O)(Nc1ccc(CCN2CCC(N3CCCCC3)CC2)cc1)c1cccc2cccnc12 is in? band 2

Returns: class label. Input: CN1CCN(c2ccc(CNc3ccc4ncc(-c5ccc(OC(F)(F)F)cc5)n4n3)cc2)CC1 band 3

# classify by growth inhibition band: CCOc1ccc(N(CC)S(=O)(=O)c2cc(Br)cc3c2N(C(=O)C2CC2)CC3)cc1 band 3

Note: place this compound into its band. Item: COc1ccc(CCNCCCCCCNCCc2ccc(OC)c(OC)c2Cl)c(Cl)c1OC band 1

State the class of the compound shown: O=c1cc(NCCCNCc2ccc(Cl)c(Cl)c2)[nH]c2ccc(Oc3ccccc3)cc12 band 1

Please indicate the class for COc1ccc2nccc(NCC3(O)CCC(NCc4cc5c(cn4)OCCO5)CC3)c2n1 (stereo not drawn) based on its growth inhibition. band 1

Looking at O=C(Nc1ccc(Cl)cc1)Nc1ccc(-c2csc(-c3nc4ccccc4[nH]3)c2)cc1 , which class would you pick? band 2

Textbook exercise: identify the category of the compound given here, O=C(Nc1cccc(-c2ccc(CN3CCCC3)cc2)c1)c1cccc(Cl)c1 , according to its measured value. band 2

Consider Cn1c(O)c(N=NC(=S)N2CCOCC2)c2ccccc21 . To which growth inhibition class does it belong? band 2

Classify this compound: CN1CCN(CCCN(Cc2ccc(-c3ccc(CNCCc4ccccc4)cc3)cc2)C(=O)c2cccs2)CC1 band 3

Textbook exercise: identify the category of the compound given here, O=C(NCCCCN1CCC(c2c[nH]c3ccccc23)CC1)c1ccc(-c2ccc(C(F)(F)F)cc2)cc1 , according to its measured value. band 1

Class? Entry: O=C(/C=C/c1ccc(Cl)c(Cl)c1)NCCCCCN1CCC(NC(=O)c2cccc(Cl)c2)CC1 band 1

###

assay protocol: antimalarial activity against Dd2 strain (AID 2302);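 note: 0% = DMSO untreated growth and 100% = chloroquine plus artemisinin killed control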
applied conditions: P. falciparum Dd2 in RBCs, LDH growth readout, 72 h; at 2 µM
Activity calls are given as the source filed them.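 Rule for the calls: active = growth inhibition above 50% at the single 2 µM test dose, taken to imply half-maximal potency below 2 µM; inactive = the rest.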
// classify into 1.0 for active, 0.0 for inactive

Record excerpt, results attached:
Record request — test call for O=C(/C=C/c1ccc(Cl)c(Cl)c1)NCCCCCN1CCC(NC(=O)Nc2ccccc2F)CC1 0.0

Look up the recorded call for COc1ccc(-c2cccc(NC(=O)c3cccs3)c2)cc1CN1CCCN(C)CC1 in this test. 0.0

---
// param item: O=C(Nc1ccc(C(=O)OC[C@@H]2CCCN3CCCC[C@H]23)cc1)c1ccc([N+](=O)[O-])cc1 ; yields the recorded call 0.0

Short answer needed: outcome of this test for Cc1cccc2[nH]c(-c3cccc(-c4ccc(CNCCNC(=O)c5ccnn5C)cc4)c3)nc12 ? 1.0

# lookup: test call for CCOC(=O)c1[nH]c(-c2cccnc2)nc1NC(=S)NCc1ccccc1 1.0

Hi, do you know how CCCCCc1cnc2nc(N)nc(N)c2c1C came out in this test? 0.0

For Nc1ncc(Cc2ccc3c(ccc4ccccc43)c2)c(N)n1 , which call appears in the assay record? 0.0

What classification did COc1cccc(Nc2nc(NCCO)c3ccccc3n2)c1 end up with in this test? 1.0

// param item: CC(C)NCc1ccc(-c2ccc(-c3nc4ccc(F)cc4[nH]3)cc2)cc1 ; yields the recorded call 1.0

I'd appreciate the recorded outcome for COCCN1CCN(Cc2cccc(-c3ccc(-c4nc5ccccc5[nH]4)cc3)c2)CC1 from this test. 1.0

Hi, sorry to bother you, what did the test record for O=C(/C=C/c1ccc(Cl)c(Cl)c1)NCCCCCN1CCC(NC(=O)Nc2ccc3c(c2)OCO3)CC1 ? 0.0

What did the test return for N#Cc1ccc(N(CCOC(=O)c2ccc(Br)s2)Cc2ccccc2C(F)(F)F)cc1C(F)(F)F ? 0.0

# lookup: test call for Clc1cc(Cl)c2cc(CNCCCNc3ccc4ccccc4n3)[nH]c2c1 1.0

Called result for Fc1ccccc1C=NNc1ccnc2ccc(C(F)(F)F)cc12 1.0

What did the test return for Cc1nc2nc(N)nc(N)c2c(C)c1Cc1cccc(F)c1 ? 0.0

What did the test return for CC(O)C1CCCCN1C(=O)c1cccc(-c2cccc(-c3nc4ccccc4[nH]3)c2)c1 (stereo unspecified) ? 1.0

What is the recorded call for this compound in the test? Cc1csc2nc(-c3ccccn3)nc(Nc3ccc4ncsc4c3)c12 1.0

What outcome does the record of this test show for O=C(NC1CCN(Cc2ccccc2O)C1)c1cccc(C(F)(F)F)c1 (stereo unspecified) ? 1.0

So what was the verdict on Cc1c(CN2CCCCC2)cccc1OCCCNc1nc(NCCc2ccc(O)cc2)nc(N2CCNCC2)n1 in this test? 0.0

Which outcome did this test record for the compound CCCCNC(=O)[C@@H]1CCCN1C(=O)c1ccc(O)c(-c2ccc(Cl)c(Cl)c2)c1 ? 1.0

I would be grateful if you could indicate the recorded call for N#CN1CC[C@@H](NS(=O)(=O)Cc2ccc(Cl)c(Cl)c2)C1 . 1.0
